- METHOD_SUMMARY: Components of the Cytosolic LPS Sensing Pathway: Gene Identification via Genome-wide siRNA Screen
- REPORTED_CONDITIONS: RAW264.7 macrophages, IL-1a HTRF, actives lie on both sides, screened at 100 nM (by protocol), cells primed 5 h with Pam3CSK4 first
Out of some 53,000 sequences screened, about 3,700 (7%) were called active. The sample as a whole holds a higher share of actives than the screen did.
# label = bin(measured z-score), where bins are L = under -0.8, M = from -0.8 up to 0.5, H = 0.5 and over

Example results:
- RESIDUE_CODES: "GCCAGUUGUGACAAAACUATT against Abca1"
  CATEGORY_LABEL: "L"
- RESIDUE_CODES: "GGUCUGUGGAUUUAAACUUTT against Sestd1"
  CATEGORY_LABEL: "H"
- RESIDUE_CODES: "GCUCUUCAUAACUCUUGCUTT against Olfr1392"
  CATEGORY_LABEL: "M"
- RESIDUE_CODES: "GGAAGUUUGCUCAAUCUCATT against Jarid2"
  CATEGORY_LABEL: "H"

Exam item: assign CGAAUUCAAAAAGCUAGAGTT against Gsto1 to the correct category.
M

Exam item: assign GGUACAUUGGCAUUGUGAATT against Hnrnpf to the correct category.
H

Exam item: assign GGCAGUAAGGCUCCAAUCUTT against Tcp10a to the correct category.
L

Exam item: assign GGCCUAAGGCUGUGAAUGUTT against D2hgdh to the correct category.
L

Exam item: assign GGUCGAAAUGAUCUCCAACTT against Poli to the correct category.
M

Exam item: assign GGUUUUUGUGGCUGAUCUUTT against Zfp711 to the correct category.
M

Exam item: assign GGGUUAUGAAGAGAAACUUTT against Gatad2b to the correct category.
M

Exam item: assign GCCAGUGAGUUUAUCAGCCTT against B4galnt3 to the correct category.
H

Exam item: assign GCGACAACUUAAAGACCGGTT against Cand2 to the correct category.
M

###

- METHOD_SUMMARY: Components of the Cytosolic LPS Sensing Pathway: Gene Identification via Genome-wide siRNA Screen;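 also: robust z of the log signal after scaling to non-targeting control siRNA wells of the plate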
- REPORTED_CONDITIONS: RAW264.7 macrophages, IL-1a HTRF, actives lie on both sides, screened at 100 nM (by protocol), cells primed 5 h with Pam3CSK4 first
Screen size: about 53,000 sequences; about 3,700 (7%) were called active. The full list was thinned out, with actives kept by preference.
READOUT: z-score
In your answer, state the number alone without any accompanying words.

Below, 2 sequences whose answers are already recorded.
- RESIDUE_CODES: "GGAAAGGAUAAAGUAUAUCTT against Aspm"
  z-score: -0.0167
- RESIDUE_CODES: "GGUCAUCAACGUGCUAGAGTT against Nucb1"
  z-score: -1.3

Hello, please tell me recorded z-score for this one: CCUGGAGAUCCCUCACUUUTT against Olfr1351
1.39

Hello, please tell me recorded z-score for this one: GGUCGCUGGAGACCUUAGUTT against Hjurp
-1.88

Hello, please tell me recorded z-score for this one: GCCAUCUGCUUUAACCUCUTT against Aebp2
0.238

Hello, please tell me recorded z-score for this one: GGAACUCUGGAAUAAUCUGTT against St6galnac2
1.58

###

- METHOD_SUMMARY: Components of the Cytosolic LPS Sensing Pathway: Gene Identification via Genome-wide siRNA Screen;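 also: robust z of the log signal after scaling to non-targeting control siRNA wells of the plate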
- REPORTED_CONDITIONS: RAW264.7 macrophages, IL-1a HTRF, actives lie on both sides, screened at 100 nM (by protocol), cells primed 5 h with Pam3CSK4 first
Among all 53,000 sequences or so, about 3,700 (7%) were called active.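 Rule for the calls: active = gene knockdowns whose robust z-score for IL-1 alpha signal is at least 2 or at most -2, so actives lie on both sides; inactive = the rest.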 The full list was thinned out, with actives kept by preference.
Pick one: T (active), F (inactive)

Example results:
- RESIDUE_CODES: "GGUCAACUCCUUUAUGAGCTT against Apoa4"
  CATEGORY_LABEL: "F"
- RESIDUE_CODES: "GCUGCAUUCGGUUACCACUTT against Olfml2b"
  CATEGORY_LABEL: "F"
- RESIDUE_CODES: "GCUUUGAUGUCGAUGGGCUTT against Arg1"
  CATEGORY_LABEL: "T"
- RESIDUE_CODES: "AUUGCAUUGUAUUCACUUGTT against Psg22"
  CATEGORY_LABEL: "F"

Could you kindly confirm the outcome this assay logged for CCAUCAGGACUCGUGAAUGTT against Fign ?
T

Could you kindly confirm the outcome this assay logged for CCUUGAGUGAAAGAAUUGATT against Tmprss11d ?
F

Could you kindly confirm the outcome this assay logged for CGAUUGCUAAGGUGUUUGATT against Sfmbt1 ?
F

Could you kindly confirm the outcome this assay logged for GGCAUAUAUACAUGCCUGCTT against Vmn1r215 ?
F

Could you kindly confirm the outcome this assay logged for GAAGAUUGGAUUUAAAGCCTT against Olfr667 ?
F

Could you kindly confirm the outcome this assay logged for GGAGAUUGUGAGAGCCAUGTT against Kcnab3 ?
F

###

- METHOD_SUMMARY: Components of the Cytosolic LPS Sensing Pathway: Gene Identification via Genome-wide siRNA Screen;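 also: robust z of the log signal after scaling to non-targeting control siRNA wells of the plate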
- REPORTED_CONDITIONS: RAW264.7 macrophages, IL-1a HTRF, actives lie on both sides, screened at 100 nM (by protocol), cells primed 5 h with Pam3CSK4 first
About 3,700 (7%) of roughly 53,000 sequences were called active. The entries come from a sample that favours actives as a whole.
Measured z-score values are reported for all entries that follow.
In your answer, state the number alone without any accompanying words.

- RESIDUE_CODES: "CCUGGAUGCAUGGUUAUUATT against Cyp2ab1"
  READOUT: "z-score"
  NUMERIC_READOUT: 2.69
- RESIDUE_CODES: "GGAUUCAAACAAUGAGCUCTT against Fam126b"
  READOUT: "z-score"
  NUMERIC_READOUT: 0.9
- RESIDUE_CODES: "GGAGCAUGUAGAGGUUUACTT against Txnrd2"
  READOUT: "z-score"
  NUMERIC_READOUT: 2.44
- RESIDUE_CODES: "GCAGGCAUUCUGCUCUAUATT against Oxgr1"
  READOUT: "z-score"
  NUMERIC_READOUT: 1.01
- RESIDUE_CODES: "GGAGCCUCUAGGAAACAAATT against Slc28a3"
  READOUT: "z-score"
  NUMERIC_READOUT: 0.309

Hello, please tell me recorded z-score for this one: GCAAGUGCGACUGUAUCUGTT against Gdpd2
-2.2

Hello, please tell me recorded z-score for this one: GGACUUCAUCAACAACAUCTT against Nsmce1
0.459

Hello, please tell me recorded z-score for this one: CGUAUGGAGUCCAUUACUATT against Frmd4b
0.341

Hello, please tell me recorded z-score for this one: GGAGCUUCUUUUCCCUCUATT against Gcgr
-0.684

Hello, please tell me recorded z-score for this one: GGAAAACUUUCAAAGAGAUTT against Mc4r
0.24

Hello, please tell me recorded z-score for this one: GGGAAGCAAAUCUAUACCCTT against Tnfrsf11a
-0.243

Hello, please tell me recorded z-score for this one: GAGCUCCUCUGCUUUCUCUTT against Ms4a6d
-2.74

Hello, please tell me recorded z-score for this one: CCCAUUUCACUUCAGUUUGTT against Osbp2
-0.253

Hello, please tell me recorded z-score for this one: GCUGUAUGGCUAAGCAGUGTT against Olfr113
-0.42

Hello, please tell me recorded z-score for this one: GGAUACCAAGCAUCGGAAGTT against Tfap2e
-0.0352

Hello, please tell me recorded z-score for this one: GCAUAGGAGAGACCAACAUTT against Zcchc10
-2.42

Hello, please tell me recorded z-score for this one: CCUGGACAUAACCAAUGUATT against Glrp1
1.5

Hello, please tell me recorded z-score for this one: GGAGCCAAGUGUGAUUACATT against Pias3
6.29

Hello, please tell me recorded z-score for this one: GCUAAGACUCUUGAAUCAGTT against Zfp280d
3.72

Hello, please tell me recorded z-score for this one: GGAAAAGCAGACAUGUGAUTT against Dedd
-0.875

Hello, please tell me recorded z-score for this one: GGGAGUUACUAACCACUUCTT against Gja3
-2.05

Hello, please tell me recorded z-score for this one: GGCACCUACAUCCUUAUUGTT against Ptprn
-0.16

###

- METHOD_SUMMARY: Components of the Cytosolic LPS Sensing Pathway: Gene Identification via Genome-wide siRNA Screen;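 also: robust z of the log signal after scaling to non-targeting control siRNA wells of the plate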
- REPORTED_CONDITIONS: RAW264.7 macrophages, IL-1a HTRF, actives lie on both sides, screened at 100 nM (by protocol), cells primed 5 h with Pam3CSK4 first
Out of some 53,000 sequences screened, about 3,700 (7%) were called active. Shown is part of a subset that was picked to be rich in actives.
# label = bin(measured z-score), where bins are lowest = under -0.9, middle = from -0.9 up to 0.3, highest = 0.3 and over

Example results:
- RESIDUE_CODES: "GGCACUCAAUGUCUUCUAUTT against Nbeal1"
  CATEGORY_LABEL: "highest"
- RESIDUE_CODES: "GCUACGUGUACCUGGAGUGTT against Cpeb1"
  CATEGORY_LABEL: "middle"

Exam item: assign GGUAGGAAUUUGGAAAACUTT against H2-T24 to the correct category.
highest

Exam item: assign GGCAGAUAAAGAUGGAGCATT against Ndp to the correct category.
highest

Exam item: assign GCCCGGAGAAUAUUAACUATT against Mllt11 to the correct category.
highest

Exam item: assign GGUGUCUUUACGUCUCCCATT against Neto1 to the correct category.
lowest

Exam item: assign GCUGUGUGGACAAAGUCUGTT against Clec4b1 to the correct category.
middle

Exam item: assign GGAUCAUAGUUACAAGGCUTT against L3mbtl2 to the correct category.
highest

Exam item: assign GCAUGUAGUAUGGUAACACTT against Akr1b7 to the correct category.
lowest

Exam item: assign CCACUGGUUCACCUAUAAUTT against Psma5 to the correct category.
middle

Origin of the recorded values: PubChem BioAssay AID1508600
